# method: Experimental ultrasound absorbance (amplitude attenuation coefficient)
# Assay type: physicochemical
metric name: Amplitude Attenuation Coefficient (db/cm-MHz)
Report as a plain number; the unit db/cm-MHz is understood.

O [Water, reference compound] ... 0.002
FC(F)OC(F)(F)C(F)C(F)(F)F (centres unmarked) ... 3.35
FC(F)OCC(F)(F)C(F)(F)F ... 0.57

Q) Endpoint output: Amplitude Attenuation Coefficient of FC(F)C(F)(F)OCC(F)(F)F . Value?
A) 2.65

Q) Endpoint output: Amplitude Attenuation Coefficient of FC(OC(F)(F)C(F)(F)C(F)(F)F)C(F)(F)F (centres unmarked) . Value?
A) 3.58
